Quick reference: COX1 10 minutes pge2/pge2d4 area ratio Avg. LLE of the listed items.
# experimentalTarget: ovine COX-1 (oCOX-1) (Ovis aries)
# Construct: purchased Cayman Chemicals (Ann Arbor, Mich.)
# Sequence (P05979 25-600): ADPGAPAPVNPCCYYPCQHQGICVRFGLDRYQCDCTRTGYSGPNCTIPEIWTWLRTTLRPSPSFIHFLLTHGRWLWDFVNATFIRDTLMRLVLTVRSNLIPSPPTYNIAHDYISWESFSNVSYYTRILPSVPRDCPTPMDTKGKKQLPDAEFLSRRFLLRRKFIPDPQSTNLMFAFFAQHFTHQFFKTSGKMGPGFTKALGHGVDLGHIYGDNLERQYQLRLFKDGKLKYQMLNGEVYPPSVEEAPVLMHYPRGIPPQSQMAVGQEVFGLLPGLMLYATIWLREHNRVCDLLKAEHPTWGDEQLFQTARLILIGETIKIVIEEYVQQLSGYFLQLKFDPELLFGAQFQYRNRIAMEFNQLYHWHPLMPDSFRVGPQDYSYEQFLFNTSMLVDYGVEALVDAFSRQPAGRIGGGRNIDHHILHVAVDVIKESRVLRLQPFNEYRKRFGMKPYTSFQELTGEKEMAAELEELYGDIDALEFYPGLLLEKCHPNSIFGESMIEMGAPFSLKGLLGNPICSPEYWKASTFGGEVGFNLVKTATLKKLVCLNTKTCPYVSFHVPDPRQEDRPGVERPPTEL
# assayProcedure: LCMS-based COX-1 enzymatic inhibition assay (PGE2 quantification)
# Assay type: biochemical
# measurementSetup: 10 minutes; readout pge2/pge2d4 area ratio; average LLE
Enter the number alone.

Sample records with COX1 10 minutes pge2/pge2d4 area ratio Avg. LLE:
[[record]]
molecule = "CS(=O)(=O)c1ccc(-c2nc(NCc3cccs3)cc3ccoc23)cc1 [Compound 2]"
recordedmeasurement = "−0.046"

[[record]]
molecule = "COc1cc(-c2ccc(S(C)(=O)=O)cc2)cc(NCc2cccs2)n1 [Compound 54]"
recordedmeasurement = 0.5171

[[record]]
molecule = "CS(=O)(=O)c1ccc(-c2cccc(NCc3ccoc3)n2)cc1 [Compound 47]"
recordedmeasurement = 1.461

[[record]]
molecule = "Cc1csc(COc2cncc(-c3ccc(S(C)(=O)=O)cc3)n2)c1 [Compound 10]"
recordedmeasurement = 2.513


Qu. Which COX1 10 minutes pge2/pge2d4 area ratio Avg. LLE value belongs to CN(Cc1cccs1)c1cncc(-c2ccc(S(C)(=O)=O)cc2)n1 [Compound 51] ?
Ans. 3.094

Qu. Which COX1 10 minutes pge2/pge2d4 area ratio Avg. LLE value belongs to CS(=O)(=O)c1ccc(-c2cccc(OCc3ccsc3)n2)cc1 [Compound 9] ?
Ans. 0.4674

Qu. Which COX1 10 minutes pge2/pge2d4 area ratio Avg. LLE value belongs to CS(=O)(=O)c1ccc(-c2cccc(OCc3ccco3)n2)cc1 [Compound 28] ?
Ans. 1.104

Qu. Which COX1 10 minutes pge2/pge2d4 area ratio Avg. LLE value belongs to C[C@H](Oc1cccc(-c2ccc(S(C)(=O)=O)cc2)n1)c1cccs1 (single isomer, unassigned) [Compound 46] ?
Ans. 0.04315

Qu. Which COX1 10 minutes pge2/pge2d4 area ratio Avg. LLE value belongs to CS(=O)(=O)c1ccc(-c2cccc(OCc3ccoc3)n2)cc1 [Compound 16] ?
Ans. 1.139

Qu. Which COX1 10 minutes pge2/pge2d4 area ratio Avg. LLE value belongs to CS(=O)(=O)c1ccc(-c2cccc(OCc3ccc(F)s3)n2)cc1 [Compound 30] ?
Ans. 0.1181

Qu. Which COX1 10 minutes pge2/pge2d4 area ratio Avg. LLE value belongs to COc1ncc(NCc2ccccc2)nc1-c1ccc(S(C)(=O)=O)cc1 [Compound 49] ?
Ans. 1.734

Qu. Which COX1 10 minutes pge2/pge2d4 area ratio Avg. LLE value belongs to CS(=O)(=O)c1ccc(-c2cncc(SCc3ccoc3)n2)cc1 [Compound 12] ?
Ans. 1.784

Qu. Which COX1 10 minutes pge2/pge2d4 area ratio Avg. LLE value belongs to CS(=O)(=O)c1ccc(-c2cccc(/C=C\c3cccs3)n2)cc1 [Compound 41] ?
Ans. 0.234

Qu. Which COX1 10 minutes pge2/pge2d4 area ratio Avg. LLE value belongs to COc1cc(NCc2cccs2)nc(-c2ccc(S(C)(=O)=O)cc2)c1 [Compound 50] ?
Ans. 1.091

Qu. Which COX1 10 minutes pge2/pge2d4 area ratio Avg. LLE value belongs to CS(=O)(=O)c1ccc(-c2cccc(NCc3ccc(F)o3)n2)cc1 [Compound 23] ?
Ans. 3.122

Qu. Which COX1 10 minutes pge2/pge2d4 area ratio Avg. LLE value belongs to CCOc1ncc(NCc2cccs2)nc1-c1ccc(S(C)(=O)=O)cc1 [Compound 25] ?
Ans. 1.374

###

# experimentalTarget: human recombinant COX2 (hCOX2) (UniProt P35354)
# assayProcedure: LCMS-based COX2 enzymatic inhibition assay (PGE2 quantification)
# Assay type: biochemical
# Set-up: COX2 2 minutes pge2/pge2d4 area ratio Avg; other: 2 minutes; readout pge2/pge2d4 area ratio; average; COX2 2 minutes pge2/pge2d4 area ratio Avg; LLE; average LLE; COX2 2 minutes pge2 area (counts) Avg; readout pge2 area (counts); other: 2 min; "ovine COX2 (oCOX2), human recombinant COX2 (hCOX2)"
# measurementSetup: 2 minutes; readout pge2 area (counts); average LLE
# Text: We have adapted a previously reported cyclooxygenase enzymatic assay utilizing LCMS quantification of PGE2 as the product of COX-1 and COX2 catalyzed conversion of arachidonic acid to evaluate the binding properties of newly synthesized ligands [Cao, 2011]. […] Using these enzymatic assays, we have evaluated>200 newly synthesized ligands against COX2 and >20 ligands against COX-1. […]
Quick reference: COX2 2 minutes pge2 area (counts) Avg. LLE of the listed items.
Enter the number alone.

Sample records with COX2 2 minutes pge2 area (counts) Avg. LLE:
[[record]]
entrysmiles = "CS(=O)(=O)c1ccc(-c2cccc(NCc3ccn[nH]3)n2)cc1"
recordedmeasurement = 2.705

[[record]]
entrysmiles = "COc1ncc(OCc2ccco2)nc1-c1ccc(S(C)(=O)=O)cc1"
recordedmeasurement = 5.428

[[record]]
entrysmiles = "CS(=O)(=O)c1ccc(-n2ccc3ncc(NCc4cccs4)nc32)cc1"
recordedmeasurement = 3.634

[[record]]
entrysmiles = "CS(=O)(=O)c1ccc(-c2cc(F)cc(OCc3cccs3)n2)cc1"
recordedmeasurement = 4.247

[[record]]
entrysmiles = "COc1cc(-c2ccc(S(C)(=O)=O)cc2)cc(NCc2cccs2)n1"
recordedmeasurement = 3.7767


Qu. Which COX2 2 minutes pge2 area (counts) Avg. LLE value belongs to "CC(C)Oc1ncc(NCc2cccs2)nc1-c1ccc(S(C)(=O)=O)cc1" ?
Ans. 3.887

Qu. Which COX2 2 minutes pge2 area (counts) Avg. LLE value belongs to "COc1ncc(-c2ccc(S(C)(=O)=O)cc2)nc1NCc1ccncc1" ?
Ans. 4.367

Qu. Which COX2 2 minutes pge2 area (counts) Avg. LLE value belongs to "CS(=O)(=O)c1ccc(-c2cncc(SCc3ccon3)n2)cc1" ?
Ans. 5.518

Qu. Which COX2 2 minutes pge2 area (counts) Avg. LLE value belongs to "CSc1ccc(-c2cncc(OCc3cccs3)n2)cc1" ?
Ans. 1.45

###

# experimentalTarget: human recombinant COX2 (hCOX2) (UniProt P35354)
# assayProcedure: LCMS-based COX2 enzymatic inhibition assay (PGE2 quantification)
# Assay type: biochemical
# Parameters: COX2 2 minutes pge2/pge2d4 area ratio Avg; other: 2 minutes; readout pge2/pge2d4 area ratio; average; COX2 2 minutes pge2/pge2d4 area ratio Avg; LLE; average LLE; COX2 2 minutes pge2 area (counts) Avg; readout pge2 area (counts); other: 2 min; "ovine COX2 (oCOX2), human recombinant COX2 (hCOX2)"
# measurementSetup: 2 minutes; readout pge2 area (counts); average LLE
Quick reference: COX2 2 minutes pge2 area (counts) Avg. LLE of the listed items.
Enter the number alone.

Qu. Which COX2 2 minutes pge2 area (counts) Avg. LLE value belongs to "CS(=O)(=O)c1ccc(-c2cnc(C(F)(F)F)c(OCc3cccs3)n2)cc1" ?
Ans. 3.56

Qu. Which COX2 2 minutes pge2 area (counts) Avg. LLE value belongs to "COc1ncc(NCc2ccco2)nc1-c1ccc(S(C)(=O)=O)cc1" ?
Ans. 5.859

Qu. Which COX2 2 minutes pge2 area (counts) Avg. LLE value belongs to CS(=O)(=O)c1ccc(-c2cncc(OC[C@@H]3CCCS3)n2)cc1 (single isomer, unassigned) ?
Ans. 4.149

Qu. Which COX2 2 minutes pge2 area (counts) Avg. LLE value belongs to "CS(=O)(=O)c1ccc(-c2cncc(N3CCCC3)n2)cc1" ?
Ans. 4.034

###

# experimentalTarget: human recombinant COX2 (hCOX2)
# assayProcedure: LCMS-based COX2 enzymatic inhibition assay (PGE2 quantification)
# Format: biochemical
# Design: COX2 2 minutes pge2/pge2d4 area ratio Avg; other: 2 minutes; readout pge2/pge2d4 area ratio; average; COX2 2 minutes pge2/pge2d4 area ratio Avg; LLE; average LLE; COX2 2 minutes pge2 area (counts) Avg; readout pge2 area (counts); other: 2 min; "ovine COX2 (oCOX2), human recombinant COX2 (hCOX2)"
# measurementSetup: 10 minutes; readout pge2 area (counts); average; read-out: COX2 10 minutes pge2 area (counts) Avg. IC50
endpointName: pIC50
Convention used: pIC50 is expressed as -log10 of the molar concentration.

[[record]]
compound = "COc1cncc(-c2ccc(S(C)(=O)=O)cc2)n1 [Compound 299]"
endpointname = "pIC50"
recordedmeasurement = 6.31

[[record]]
compound = "CS(=O)(=O)c1ccc(-c2cncc(OCc3cccs3)n2)cc1 [Compound 19]"
endpointname = "pIC50"
recordedmeasurement = 8.82

[[record]]
compound = "CS(=O)(=O)c1ccc(-c2ncc3ncn(Cc4cccs4)c3n2)cc1 [Compound 164]"
endpointname = "pIC50"
recordedmeasurement = 7.30

[[record]]
compound = "CN1CCN(c2cncc(-c3ccc(S(C)(=O)=O)cc3)n2)CC1 [Compound 287]"
endpointname = "pIC50"
recordedmeasurement = 5.81

[[record]]
compound = "COc1cc(-c2ccc(S(C)(=O)=O)cc2)cc(NCc2cccs2)n1 [Compound 54]"
endpointname = "pIC50"
recordedmeasurement = 8.03

[[record]]
compound = "CS(=O)(=O)c1ccc(-c2cncc(N3CCCC3)n2)cc1 [Compound 326]"
endpointname = "pIC50"
recordedmeasurement = 6.00


Qu. Which pIC50 value belongs to CS(=O)(=O)c1ccc(-c2cncc(NCc3ccco3)n2)cc1 [Compound 120] ?
Ans. 7.94

Qu. Which pIC50 value belongs to C[C@H](Nc1cncc(-c2ccc(S(C)(=O)=O)cc2)n1)c1cccs1 [Compound 109] ?
Ans. 7.88

Qu. Which pIC50 value belongs to CS(=O)(=O)c1ccc(-c2cncc(N3CCCCC3)n2)cc1 [Compound 262] ?
Ans. 5.29

Qu. Which pIC50 value belongs to C[C@@H](Nc1cncc(-c2ccc(S(C)(=O)=O)cc2)n1)c1cccs1 [Compound 173] ?
Ans. 7.42

Qu. Which pIC50 value belongs to CS(=O)(=O)c1ccc(-c2cncc(NCc3ccc(F)cc3)n2)cc1 [Compound 96] ?
Ans. 8.10

Qu. Which pIC50 value belongs to CS(=O)(=O)c1ccc(-c2cnc3ccn(Cc4cccs4)c3n2)cc1 [Compound 74] ?
Ans. 9.03

Qu. Which pIC50 value belongs to CS(=O)(=O)c1ccc(-c2cncc(NC34CC5CC(CC(C5)C3)C4)n2)cc1 [Compound 240] ?
Ans. 5.88

Qu. Which pIC50 value belongs to COc1nc(NCc2cccs2)cc(-c2ccc(S(C)(=O)=O)cc2)n1 [Compound 156] ?
Ans. 7.45
